Where these numbers come from: PubChem BioAssay

# composite z-score listing for each entry below
PROTOCOL_NOTES: probe aInhba binding on compound microarray – biochemical, small-molecule microarray, 635/667 nm fluorescence, primary screen (AID 1148);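 note: score merges 667nm spot fluorescence with signal-to-noise for antibody binding to printed compounds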
SETUP_CONDITIONS: higher = more signal
Keep it simple and answer with nothing but the number.

COMPOUND	composite z-score
CO[C@H]1O[C@H](CO)[C@@H](OC(=O)Nc2cccc(F)c2)[C@H](OC(=O)Nc2ccccc2-c2ccccc2)[C@@H]1OC(=O)Nc1ccccc1-c1ccccc1	0.212
Cc1ccc([C@H]2C(C(=O)O)=C[C@@H](C(C)C)N2S(=O)(=O)c2ccc(C)cc2)cc1	0.0173
CCCNC(=O)[C@@]1(C)c2ccccc2C(=O)N(Cc2cc(C(F)(F)F)cc(C(F)(F)F)c2)[C@H]1c1ccc(CO)cc1	-0.128
CN(C)CCCC[C@@H]1NC(=O)[C@@H]2C[C@H](C(=O)NCCCCCN)[C@H](c3ccc(O)cc3)N2C1=O	-0.0639
C=CCN1Cc2ccccc2C[C@@]2(COC(c3ccc(OCCCO)cc3)=N2)C1=O	0.185
O=C1O[C@@H](c2ccccc2)[C@@H](c2ccccc2)N2[C@@H](c3ccc(O)cc3)[C@]3(C(=O)Nc4ccccc43)[C@@H](C(=O)NC[C@H](O)c3ccccc3)[C@H]12	-0.176
CC(C)NC(=O)[C@@H]1c2ccccc2C(=O)N(C2CCCCC2)[C@H]1c1ccc(CO)cc1	0.152
CN1C(=O)C2C=CC(C(O)c3ccc(Br)cc3)N(Nc3ccccc3)C2C1=O (stereo unspecified)	-0.0523

May I ask what composite z-score has been recorded for `CCCC[C@@H]1C[C@H]1[C@@H](NC(=O)c1ccco1)c1ccccc1` ?
-0.258

May I ask what composite z-score has been recorded for `CC(C)C(=C=CC[C@H](O)c1ccccc1OCCO)CCO` ?
-0.101

May I ask what composite z-score has been recorded for `O=C1O[C@H](c2ccccc2)[C@H](c2ccccc2)N2[C@H]1[C@@H](C(=O)NC[C@H](O)c1ccccc1)[C@]1(C(=O)Nc3ccc(C#CC4=CCCCC4)cc31)[C@H]2c1ccc(O)cc1` ?
0.121

May I ask what composite z-score has been recorded for `O=C(NCc1ccccc1)[C@@H]1c2ccccc2C(=O)N(C2CCCCC2)[C@H]1c1ccc(CO)cc1` ?
-0.352
